Assay readout: melting point

CN(C)C=CC(=O)c1ccc2ccccc2c1 : 100 to 101 °C

Give one value of melting point per listed compound.
1. CC(=O)OCc1c(C#N)cnc2c(NC(=O)c3c(Cl)cccc3Cl)cccc12
2. O=C(NCc1ccc(Cl)cc1)c1cn2c3c(cc(CN4CCOCC4)cc3c1=O)CN(Cc1ccccc1)C2=O
3. Cc1c(-c2ccccc2)oc2c(SCCCCl)cccc2c1=O
4. CC(O)(Cc1ccccc1)CN1CCC2(CC1)CSC1=C(O2)c2ccccc2C(=O)C1=O (stereo not given)
5. CCOC(=O)c1ccc(-c2ccsc2)nc1C(=O)OCC

stdout:
1. 201 to 203 °C
2. 201 to 204 °C
3. 84 to 86 °C
4. 186 to 187 °C
5. 100 to 102 °C

The reported numbers originate from a melting point compilation (Tetko et al.; mined from patent text by program, amines drawn as free bases though some values may be those of a salt).
